Molecular target: T1, human IL-36R extracellular domain expressed with a C-terminal mouse IgG2a Fc tag (hIL-36R-mFc) (human; mouse, UniProt Q9HB29 20-337)
T1 construct: not shown: mouse IgG2a Fc, E98-K330
T1 sequence (looked up): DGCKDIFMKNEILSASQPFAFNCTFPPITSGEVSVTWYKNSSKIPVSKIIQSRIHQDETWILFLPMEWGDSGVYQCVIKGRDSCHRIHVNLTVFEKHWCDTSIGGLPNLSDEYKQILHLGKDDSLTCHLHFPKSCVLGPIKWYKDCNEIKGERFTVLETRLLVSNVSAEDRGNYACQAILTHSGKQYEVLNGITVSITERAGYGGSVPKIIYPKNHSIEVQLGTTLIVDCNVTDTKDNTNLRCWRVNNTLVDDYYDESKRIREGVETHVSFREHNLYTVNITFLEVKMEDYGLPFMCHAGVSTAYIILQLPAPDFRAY
Test: SPR Biacore 4000, mAb captured on anti-hFc, 25C
PROPERTY: 100 nM hIL-36R-mFc Bound (RU)
Output spec: scalar in RU, unitless text.

Examples from the recorded data:
BINDER | 100 nM hIL-36R-mFc Bound (RU)
H4H14731P (antibody, human IgG4 S228P, kappa, V domains shown, Fully human anti-IL-36R antibody) VH: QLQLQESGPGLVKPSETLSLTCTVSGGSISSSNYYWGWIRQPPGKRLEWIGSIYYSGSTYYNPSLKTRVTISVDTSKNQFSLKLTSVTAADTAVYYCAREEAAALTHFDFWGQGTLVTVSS VL: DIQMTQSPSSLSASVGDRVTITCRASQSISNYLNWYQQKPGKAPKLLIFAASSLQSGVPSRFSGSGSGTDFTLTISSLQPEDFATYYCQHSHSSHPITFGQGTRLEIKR | 10
H4H14757P (antibody, human IgG4 S228P, kappa, V domains shown, Fully human anti-IL-36R antibody) VH: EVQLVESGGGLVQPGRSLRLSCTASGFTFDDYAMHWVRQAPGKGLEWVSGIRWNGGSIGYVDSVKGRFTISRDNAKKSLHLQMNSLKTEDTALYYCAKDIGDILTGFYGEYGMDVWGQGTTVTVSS VL: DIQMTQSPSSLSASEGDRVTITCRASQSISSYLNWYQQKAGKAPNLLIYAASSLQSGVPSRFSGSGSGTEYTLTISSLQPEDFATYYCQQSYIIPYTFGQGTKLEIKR | 167
H4H14706P2 (antibody, human IgG4 S228P, kappa, V domains shown, Fully human anti-IL-36R antibody) VH: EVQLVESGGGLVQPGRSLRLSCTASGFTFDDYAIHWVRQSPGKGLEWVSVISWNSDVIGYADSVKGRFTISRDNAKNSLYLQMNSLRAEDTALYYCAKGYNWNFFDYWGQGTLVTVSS VL: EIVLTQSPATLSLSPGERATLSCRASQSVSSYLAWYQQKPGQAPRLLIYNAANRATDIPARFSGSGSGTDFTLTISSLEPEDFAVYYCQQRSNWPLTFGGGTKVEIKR | 163

Task: State its 100 nM hIL-36R-mFc Bound (RU) for this binder: H4H14700P2 (antibody, human IgG4 S228P, kappa, V domains shown, Fully human anti-IL-36R antibody) VH: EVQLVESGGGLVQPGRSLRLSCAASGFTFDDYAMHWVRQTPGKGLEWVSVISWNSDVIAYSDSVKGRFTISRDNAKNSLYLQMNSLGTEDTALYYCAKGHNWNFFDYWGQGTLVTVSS VL: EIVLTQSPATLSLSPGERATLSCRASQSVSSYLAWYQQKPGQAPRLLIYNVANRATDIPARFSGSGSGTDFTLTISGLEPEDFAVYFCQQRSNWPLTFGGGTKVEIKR
Output: 128

Task: State its 100 nM hIL-36R-mFc Bound (RU) for this binder: H4H14699P2 (antibody, human IgG4 S228P, kappa, V domains shown, Fully human anti-IL-36R antibody) VH: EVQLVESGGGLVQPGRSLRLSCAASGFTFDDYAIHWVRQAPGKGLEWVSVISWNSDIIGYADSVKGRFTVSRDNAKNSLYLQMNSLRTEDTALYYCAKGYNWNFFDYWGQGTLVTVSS VL: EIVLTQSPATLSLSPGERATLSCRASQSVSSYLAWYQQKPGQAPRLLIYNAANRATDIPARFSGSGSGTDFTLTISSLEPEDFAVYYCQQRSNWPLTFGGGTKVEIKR
Output: 150
